study target: T1, human CD19 (human, UniProt P15391 20-556)
T1 construct: whole, on cells; also called Cluster of Differentiation 19; hPro1
T1 sequence (looked up): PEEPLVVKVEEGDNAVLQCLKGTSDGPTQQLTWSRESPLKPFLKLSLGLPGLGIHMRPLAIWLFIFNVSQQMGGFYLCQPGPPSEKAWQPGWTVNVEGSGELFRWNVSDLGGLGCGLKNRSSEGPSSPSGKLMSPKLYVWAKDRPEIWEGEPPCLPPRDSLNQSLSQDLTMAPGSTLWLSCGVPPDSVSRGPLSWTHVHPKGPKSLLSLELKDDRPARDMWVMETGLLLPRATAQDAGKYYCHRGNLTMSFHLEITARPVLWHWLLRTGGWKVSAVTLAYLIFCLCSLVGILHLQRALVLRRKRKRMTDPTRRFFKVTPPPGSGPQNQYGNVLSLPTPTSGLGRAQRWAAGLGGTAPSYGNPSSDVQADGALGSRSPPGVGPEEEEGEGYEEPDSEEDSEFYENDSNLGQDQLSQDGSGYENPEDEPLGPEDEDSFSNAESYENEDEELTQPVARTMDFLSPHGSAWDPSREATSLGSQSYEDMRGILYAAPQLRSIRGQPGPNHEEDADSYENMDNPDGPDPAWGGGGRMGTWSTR
assay procedure: flow cytometry on CD19 transfected CHO-K1 cells, Scatchard analysis
experimental endpoint: pKd
The scale used: pKd is minus the common logarithm of the concentration in molar units.

Take a look at these entries with their results.
binder | pKd
WBP7011_4.225.7 (antibody, mouse IgG2a, V domains shown, also called W7011-4.225.7) VH: EIQLQQSGPELVKPGASVKVSCKASGYAFTSYNMYWVKQSHGKSLEWIGYIDPYNGDTTYNQKFKGKATLTVDKSSSTAYMHLNSLTSEDSAVYYCLTTAYAMDYWGQGTSVTVSS VL: QIVLTQSPAIMSASLGEEITLTCSASSTVNYMHWYQQKSGTSPKLLIYSTSNLASGVPSRFSGSGSGTFYSLTIRSVEAEDAADYYCHQWSSYPYTFGGGTKLEIK | 9.13
WBP7011_4.155.8 (antibody, V domains shown) VH: EIQLQQSGPELVKPGASVKVSCKASGYAFTSYNMYWVKQSHGKSLEWIGYIDPYNGDTTYNQKFKGKATLTVDKSSSTAYMHLNSLTSEDSAVYYCLTTAYAMDYWGQGTSVTVSS VL: QIVLTQSPAIMSASLGEEITLTCSASSTVNYMHWYQQKSGTSPKLLIYSTSNLASGVPSRFSGSGSGTFYSLTIRSVEAEDAADYYCHQWSSYPYTFGGGTKLEIK | 9.02
WBP7011_4.231.5 (antibody, V domains shown, also called W7011-4.231.5) VH: EVQLQQSGPELVKPGASVKMSCKASGYTFTSYVMHWVKQKPGQGLEWIGYINPYNDGTQYNEKFKGKATLTSDKSSSTAYMELSSLTSEDSAVYYCARGPYYYSPSPFDYWGQGTTLTVSS VL: DAVMTQTPLSLPVSLGDQASISCRSSQSLENSNGNTYLNWYLQKPGQSPQLLIYRVSNRFSGVLDRFSGSGSGTDFTLKISRVEAEDLGVYFCLQVTHVPYTFGGGTKLEIK | 9.77
WBP7011-4.15.10 (antibody, V domains shown, also called W7011-4.15.10) VH: EVQLQQSGPELVKPGASVKMSCKASGYTFTSYVMHWMKQKPGQGLEWIGYINPYNDGTEYHEKFKGKATLTSDKSSSTAYMELSSLTSEDSAVFYCARGPYYYGGSPFDFWGQGTTLTVSS VL: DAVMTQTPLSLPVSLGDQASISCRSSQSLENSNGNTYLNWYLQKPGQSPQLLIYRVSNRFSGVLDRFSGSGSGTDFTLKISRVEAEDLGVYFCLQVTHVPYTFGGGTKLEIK | 9.77

Let us examine a further case.
input: Query (binder): WBP7011_4.56.1 (antibody, V domains shown, also called W7011-4.56.1) VH: EVQLQQSGPELVKPGASVKMSCKASGYTFTNYVIHWVKQKPGQGLEWIGYINPYNDGTEYNEKFKGKATLTSDTSSSTAYMALSSLTSEDSAVYYCTRGPYYYGGSPFDYWGQGTTLTVSS VL: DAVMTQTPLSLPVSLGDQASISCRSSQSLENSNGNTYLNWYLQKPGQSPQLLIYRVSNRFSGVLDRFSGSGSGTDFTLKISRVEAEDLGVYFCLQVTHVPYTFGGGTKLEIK ; field requested: pKd
output: 9.93
